Experiment: protein stability index of a GFP-peptide fusion (yeast GPS) (PSI 1-4); higher = more stable; sorted into four equal gates, so the index is relative within each strain
Details: ubr1∆
Please use criterion met whenever protein stability index is not below 3, and criterion not met whenever it is.

Completed entries (count: 3):
| recordSequence | groupLabel |
| --- | --- |
| AIPNSIIKRSNGQSLSP [YMR153W/NUP53] | criterion not met |
| KKSRSNLSQENDNEGKH [YAR002W/NUP60] | criterion met |
| FKKDLVIVLSNISHLLE [SWI1] | criterion not met |

stdin: protein stability index >= 3 for SEGISEATREVFGISKT [ITC1] ?
stdout: criterion met

###

Assay: protein stability index of a GFP-peptide fusion (yeast GPS) (PSI 1-4); higher = more stable; sorted into four equal gates, so the index is relative within each strain
Details: pdr5∆
experimentalEndpoint: protein stability index

These recorded examples may help you get a feel for the data.
| recordSequence | protein stability index |
| --- | --- |
| IASAGKDGEIMLWNLAA [ASC1] | 1.66 |
| MPQSGTGVSVEAVDDVF [RPN11] | 3.12 |
| GETIKSNAVTQTNIWEE [SEM1] | 3.54 |
| STSNALKVLSGDEGYNE [SNF12] | 3.24 |
| QQQQQQQQRRQLTPQQQ [GAL11] | 2.83 |
| KTYEPVLNEDDLAFGGE [RPN5] | 3.1 |

stdin: Fill blank: measured protein stability index of the sequence QRARDQDSIDISIKDNK [GAL11] is ____.
stdout: 3.12

stdin: Fill blank: measured protein stability index of the sequence VAAFVNNYPNVELTYSL [BRR2] is ____.
stdout: 2.82

###

Measured protein stability index by item
Experiment: protein stability index of a GFP-peptide fusion (yeast GPS) (PSI 1-4); higher = more stable; sorted into four equal gates, so the index is relative within each strain
Conditions: doa10∆
Lab note: write the figure by itself, no unit.

| recordSequence | number |
| --- | --- |
| VEQTAEVTIEDALKVVL [RPS12] | 3.34 |
| QLYFKKKVNYKVTSYDI [ISW2] | 2.63 |
| SEINEILARNDEEMAVL [SNF2] | 2.88 |
| QNRPYNHPELQGITRNV [RPC17] | 2.06 |
| VEFKLPKELVPSHEKLK [CDC53] | 2.37 |

stdin: Fill blank: measured protein stability index of the sequence RLEFDQDRDRFFLRDTL [SNF5] is ____.
stdout: 3.07

stdin: Fill blank: measured protein stability index of the sequence KELQQLQKQILTVENKL [SMC1] is ____.
stdout: 1.74

stdin: Fill blank: measured protein stability index of the sequence RRRDFGAPANKRPRRGL [SMD1] is ____.
stdout: 2.84

stdin: Fill blank: measured protein stability index of the sequence NYLLKRNEDARRNLRYG [RPO31] is ____.
stdout: 3.35

###

Experiment: protein stability index of a GFP-peptide fusion (yeast GPS) (PSI 1-4); higher = more stable; sorted into four equal gates, so the index is relative within each strain
Details: doa10∆
Measured protein stability index by item
Lab note: write the figure by itself, no unit.

| recordSequence | number |
| --- | --- |
| MLASQANGGSTIISPHK [DSN1] | 3.42 |

stdin: Fill blank: measured protein stability index of the sequence LPSAVDGENDKKEATKP [YLR335W/NUP2] is ____.
stdout: 3.36

stdin: Fill blank: measured protein stability index of the sequence REIQTAVRLILPGELAK [HTB1] is ____.
stdout: 3.25

stdin: Fill blank: measured protein stability index of the sequence SAEDQLYAITFRKGLGN [QCR2] is ____.
stdout: 3.06

stdin: Fill blank: measured protein stability index of the sequence ANCQRQLTEFWTELCQR [NNF1] is ____.
stdout: 3.09

stdin: Fill blank: measured protein stability index of the sequence PLRMETIPILESDSKAT [DSN1] is ____.
stdout: 2.14

stdin: Fill blank: measured protein stability index of the sequence ESYYNWKYNNFLQKFEI [YML103C/NUP188] is ____.
stdout: 2.47

stdin: Fill blank: measured protein stability index of the sequence FEYVLYPSKTLKTDGVR [FAS2] is ____.
stdout: 2.42

###

Test: protein stability index of a GFP-peptide fusion (yeast GPS) (PSI 1-4); higher = more stable; sorted into four equal gates, so the index is relative within each strain
Settings: doa10∆
Please use yes (1) whenever protein stability index is not below 3, and no (0) whenever it is.

| recordSequence | groupLabel |
| --- | --- |
| ITHQLNNKFANKIIPNV [RPC25] | no (0) |
| IQRTTESLILKWDNQSA [RGR1] | yes (1) |
| DDYSNEDNEMLEDLFSY [YJR042W/NUP85] | no (0) |
| KRFKRKDNAKISNNLAL [SRP68] | no (0) |
| KIGDLGLARKFHNMLQT [SSN3] | no (0) |

stdin: protein stability index >= 3 for MPRAPRTYSKTYSTPKR [RPS9A] ?
stdout: no (0)

stdin: protein stability index >= 3 for REMALCRELHNKHLTTL [SSN3] ?
stdout: no (0)

###

Assay: protein stability index of a GFP-peptide fusion (yeast GPS) (PSI 1-4); higher = more stable; sorted into four equal gates, so the index is relative within each strain
Conditions: pdr5∆
Measured protein stability index by item
Lab note: write the figure by itself, no unit.

These recorded examples may help you get a feel for the data.
| recordSequence | protein stability index |
| --- | --- |
| RQNRRPELGDKFSSRHG [RET1] | 3.4 |
| KQINEARDEILPLRLQF [PGD1] | 2.63 |
| SINKNNKEMHTDLGKDI [SSN2] | 2.07 |
| YGGDGLDPLEMEGNAQP [RPO31] | 3.43 |
| CLGIKDEEMLTSCTIPK [GAL11] | 2.98 |
| DPTKVTEFEFYLLEELE [SSN8] | 3.28 |
| TELMNRSPLVTPMDESS [SRP72] | 2.58 |

stdin: Fill blank: measured protein stability index of the sequence ITATLVGTVRCEEEKKT [CSL4] is ____.
stdout: 1.9

###

Experiment: protein stability index of a GFP-peptide fusion (yeast GPS) (PSI 1-4); higher = more stable; sorted into four equal gates, so the index is relative within each strain
Details: ubr1∆
Please use yes (1) whenever protein stability index is not below 3, and no (0) whenever it is.

Completed entries (count: 5):
| recordSequence | groupLabel |
| --- | --- |
| ILTTAVGLVSPSFMLKH [RPN1] | no (0) |
| FLQSQRQQQQRSILQSL [SWI1] | no (0) |
| FPRSRSRSRSSIRSISP [ESC2] | yes (1) |
| TDLHLPKKEYDDDAVRR [NSL1] | yes (1) |
| CNDEDKDLETLYNKIWT [ECM29] | no (0) |

stdin: protein stability index >= 3 for INELVLENFKSYAGKQV [SMC4] ?
stdout: no (0)

stdin: protein stability index >= 3 for EQRKQKLSKILPRYQEL [SMC3] ?
stdout: yes (1)

###

Assay: protein stability index of a GFP-peptide fusion (yeast GPS) (PSI 1-4); higher = more stable; sorted into four equal gates, so the index is relative within each strain
Settings: ubr1∆
Please use t whenever protein stability index is not below 3, and f whenever it is.

Completed entries (count: 2):
| recordSequence | groupLabel |
| --- | --- |
| FDGFLFGSRVMIAKEVK [FAS1] | f |
| TGESEESSSEDDYEDQD [IRR1] | t |

stdin: protein stability index >= 3 for LQDVIALSIADDASSAE [RPC53] ?
stdout: f

stdin: protein stability index >= 3 for LLLKDQQTAKKLIPKLY [ECM29] ?
stdout: f

stdin: protein stability index >= 3 for DSLISGVKQKITIQLTR [BRR2] ?
stdout: f

stdin: protein stability index >= 3 for IKKPTSAVVSSNASRRK [RPN4] ?
stdout: f

stdin: protein stability index >= 3 for LAHYVVTAKLLGFTPGE [FAS1] ?
stdout: f

stdin: protein stability index >= 3 for MLASQANGGSTIISPHK [DSN1] ?
stdout: t

stdin: protein stability index >= 3 for LYTLVINDAGKAKKLIQ [RPL38] ?
stdout: f

stdin: protein stability index >= 3 for VVDPKTSIEKSSEILSY [YML103C/NUP188] ?
stdout: f

###

Measured protein stability index by item
Assay: protein stability index of a GFP-peptide fusion (yeast GPS) (PSI 1-4); higher = more stable; sorted into four equal gates, so the index is relative within each strain
Details: pdr5∆

| recordSequence | protein stability index |
| --- | --- |
| GNIVAELAQDPQTMEHY [YCS4] | 3.4 |
| SKPSTASPSAHTSSSDG [RPN4] | 3.04 |
| YRFYEYIYSQETKSWIN [MED1] | 1.93 |
| FVIHIQEKNFQTGIFVY [RPB5] | 1.58 |

stdin: Fill blank: measured protein stability index of the sequence AIQKKDNKDKEGNAGGD [YOR098C/NUP1] is ____.
stdout: 3.32

stdin: Fill blank: measured protein stability index of the sequence EKKPAAKKTSTSTDGKK [HTB1] is ____.
stdout: 3.07

stdin: Fill blank: measured protein stability index of the sequence AEVQSLFQDGSASLHTR [RRP4] is ____.
stdout: 2.78

stdin: Fill blank: measured protein stability index of the sequence LKIYYKEEFSSDESIER [RRI2] is ____.
stdout: 2.43

stdin: Fill blank: measured protein stability index of the sequence KKEYIELDILNKGWKLQ [SRB4] is ____.
stdout: 3.38

stdin: Fill blank: measured protein stability index of the sequence KVISNPLLARKQFVVDV [RPS24A] is ____.
stdout: 1.94

stdin: Fill blank: measured protein stability index of the sequence RKVRTKKWKKYWQYKAG [SWP82] is ____.
stdout: 2.17

stdin: Fill blank: measured protein stability index of the sequence NDICSVENYETSSAFFY [SIR4] is ____.
stdout: 2.88

stdin: Fill blank: measured protein stability index of the sequence KPSPIDSGIGSNGSGIV [CSL4] is ____.
stdout: 2.89

stdin: Fill blank: measured protein stability index of the sequence RLAPLIKEENDMENMAD [ARP7] is ____.
stdout: 3.65

stdin: Fill blank: measured protein stability index of the sequence MACNFQFPEIAYPGKLI [CSL4] is ____.
stdout: 2.9
